- Assayed target: LILRB2-chimeric reporter receptor on reporter cells (UniProt Q8N423 22-460)
- Sequence (Q8N423 22-460, change not shown): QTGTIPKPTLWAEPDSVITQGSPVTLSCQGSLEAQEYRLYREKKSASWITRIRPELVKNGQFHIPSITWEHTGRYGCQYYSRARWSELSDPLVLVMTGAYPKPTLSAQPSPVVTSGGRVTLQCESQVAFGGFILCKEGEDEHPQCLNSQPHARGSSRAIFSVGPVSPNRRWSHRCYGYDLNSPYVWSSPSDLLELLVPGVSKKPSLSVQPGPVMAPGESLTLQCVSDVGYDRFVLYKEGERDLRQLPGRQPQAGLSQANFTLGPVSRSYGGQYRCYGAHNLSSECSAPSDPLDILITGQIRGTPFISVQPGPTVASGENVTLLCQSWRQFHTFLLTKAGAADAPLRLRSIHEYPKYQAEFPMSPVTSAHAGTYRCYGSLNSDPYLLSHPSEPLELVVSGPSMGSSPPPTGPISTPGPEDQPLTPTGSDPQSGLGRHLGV
- Experiment description: cell-based or functional assay
IC50 (M); GFP signal of LILRB2-chimeric reporter cells on plate-coated oAβ for assorted binders
Use M as the unit, but write only the number.

Look over these answered cases.
Binder | Quantity unit | Experimental value
NeuB2-40 (antibody, V domains shown, also called Ab40; 40-HC/40-LC) VH: QVQLVQSGAEVKKPGASVKVSCKASGYTFTNYGISWVRQAPGQGLEWMGWISGDAGDTKFAQKFQGRVTMTTDTSTTTTYMELRSLRSDDTAVYYCARDGEYIPMFRGFDNYYGLDVWGQGTTVTVSS VL: QPVLTQPPSVSEAPRQRVTISCSGSSSNIGKNAVNWYQQFPGKAPKLLIYYDDLLPSGVSDRFSGSRSGTSASLAISGLQSEDEADYYCAAWDDRLKGYVFGTGTQLTVL | M | 3.6e-09
NeuB2-29 (antibody, V domains shown, also called Ab29; NewuB2-29) VH: QVQLVETGGGVVQPGRSLRLSCAASGFTFSDYAMHWVRQAPGKGLEWVTLISYDGSQKYYADSVKGRFTISRDDSKNTVDLQMNSLKAEDTAVYYCAKFPSLNDNVGFDVWGQGTMVTVSS VL: QSVLTQPPSVSGAPRERVTISCSGSTSNIENNAVNWYQQLPGKAPKLLIYYDDLVPSGVSDRFSGSKSGTSASLAISGLQSGDEAYYYCAVWDDSLNGPVFGGGTKVTVL | M | 3.44e-10

// query Query (binder): NeuB2-60 (antibody, V domains shown, also called Ab60; 60-HC/60-LC) VH: QVQLQESGPGLVKPSGTLSLTCAVSGGSITSSNWWSWVRQPPGKGLEWIGDISHSGSTNYNPSLKGRVTMSVDRSKNQFFLKLSSVTAADTAMYYCARAFHGMDVWGQGTTVTVSS VL: QSVLTQPPSVSEAPRQRVTISCSGSSSNIANNAVNWYQQLPGKAPKLLIYYDDLLASGVSDRFSGSRSGTSAALAISGLQSEDEADYYCATWDDDLNGPIFGGGTKVTVL ; field requested: IC50 (M); GFP signal of LILRB2-chimeric reporter cells on plate-coated oAβ
// result 9.82e-10

// query Could you share which IC50 (M); GFP signal of LILRB2-chimeric reporter cells on plate-coated oAβ value was measured for NeuB2-55 (antibody, V domains shown, also called Ab55; 55-HC/55-LC) VH: EVQLVQSGAEVKKPGSSVKVSCKASGGTFSSYAISWVRQAPGQGLEWMGGIIPIFGTANYAQKFQGRVTITADESTSTAYMELSSLRSEDTAVYYCARGVDQVDYWGQGTLVTVSS VL: QAVVTQPASVSGSPGQSITISCTGTSSDVGGYNYVSWYQQHPGKAPKLMIYDVSNRPSGVSNRFSGSKSGNTASLTISGLQAEDEADYYCSSYTSSSTPYVFGTGTKVTVL ?
// result 1.89e-09

// query Consider the binder NeuB2-93 (antibody, V domains shown, also called Ab93; 93-HC/93-LC) VH: QVQLMQSGAEVKKPGSSVKVSCKASGGRFSSNVMSWVRQAPGQGLEWMGGIIPIFGTPKYAQKFQGRVTITADKSTSTAYMELSSLRSEDTAVYYCASGSTPFDAFDIWGQGTMVTVSS VL: QPVLTQPASVSGSPGQSITISCTGTSSDVGGYNYVSWYQQHPGKAPKLMIYEVSNRPSGVSNRFSGSKSGNTASLTISGLQAEDEADYYCSSYTSSSTPWVFGGGTKVTVL and give its measured IC50 (M); GFP signal of LILRB2-chimeric reporter cells on plate-coated oAβ.
// result 3.81e-09
